Test system: vesicular stomatitis virus
assay notes: microbe, parasite or virus in culture
Format: cell-based
details: HEL, read-out: in vitro antiviral activity (EC50), none up to
pEC50: −log10 of the molar value.
measured property: pEC50

C[C@H](Cn1cnc2c(N)ncnc21)OCP(=O)(O)S (some centres unmarked) ... < 3.70

Prompt: Using known records, supply pEC50 for Nc1ncnc2c1ncn2CCOCP(=O)(O)S (centres unmarked) [Compound 6, 9-[2-(thiophosphonomethoxy)ethyl]adenine]
Response: < 3.70

* * *

Listed below: kpol/Kd values for each entry.
tgt: wild-type RT of HIV-1 (Human immunodeficiency virus type 1 group M subtype B)
assay notes: biochemical
Type: biochemical
details: wild-type RT
Lab note: jot down the number only; don't add units.

// worked examples, kpol/Kd included
Nc1ncnc2c1ncn2CCOCP(O)(=S)OP(=O)(O)OP(=O)(O)O (stereo not shown) [Compound 12] ... 0.5
Nc1ncnc2c1ncn2CCOCP(=O)(O)OP(=O)(O)OP(=O)(O)O [PMEApp, PMEA diphosphate] ... 0.86
C[C@@H](Cn1cnc2c(N)ncnc21)OCP(=O)(O)OP(=O)(O)OP(=O)(O)O [PMPApp, PMPA diphosphate] ... 0.3

Please look at the following compound next.
Prompt: Using known records, supply kpol/Kd for Nc1ncnc2c1ncn2[C@H]1C[C@H](O)[C@@H](COP(=O)(O)OP(=O)(O)OP(=O)(O)O)O1 [dATP]
Response: 6.71

* * *

Listed below: Kd values for each entry.
tgt: wild-type RT of HIV-1 (Human immunodeficiency virus type 1 group M subtype B, UniProt P04585)
assay notes: biochemical
Assay type: biochemical
details: affinities of the RT for the analogues (Kd), wild-type RT; unit inferred
Entry rule: numbers only, all in µM.

C[C@H](Cn1cnc2c(N)ncnc21)OCP(O)(=S)OP(=O)(O)OP(=O)(O)O (some centres unmarked) ... 5.5

Prompt: Using known records, supply Kd for Nc1ncnc2c1ncn2CCOCP(O)(=S)OP(=O)(O)OP(=O)(O)O (centres unmarked)
Response: 1.2

* * *

tgt: K65R mutant RT of HIV-1 (Human immunodeficiency virus type 1 group M subtype B, UniProt P04585, K652R)
assay notes: biochemical
Type: biochemical
details: K65R mutant RT
Listed below: kpol values for each entry.

C[C@@H](Cn1cnc2c(N)ncnc21)OCP(=O)(O)OP(=O)(O)OP(=O)(O)O [PMPApp, PMPA diphosphate] ... 0.32 s⁻¹

Prompt: Using known records, supply kpol for Nc1ncnc2c1ncn2CCOCP(=O)(O)OP(=O)(O)OP(=O)(O)O [PMEApp, PMEA diphosphate]
Response: 0.75 s⁻¹

Prompt: Using known records, supply kpol for Nc1ncnc2c1ncn2[C@H]1C[C@H](O)[C@@H](COP(=O)(O)OP(=O)(O)OP(=O)(O)O)O1
Response: 11.63 s⁻¹

Prompt: Using known records, supply kpol for C[C@H](Cn1cnc2c(N)ncnc21)OCP(O)(=S)OP(=O)(O)OP(=O)(O)O (some centres unmarked)
Response: 0.077 s⁻¹

Prompt: Using known records, supply kpol for Nc1ncnc2c1ncn2CCOCP(O)(=S)OP(=O)(O)OP(=O)(O)O (centres unmarked)
Response: 0.03 s⁻¹
